Taken from paper PMC10954796.

# system.under.test: sRAGE (Homo sapiens, UniProt Q15109)
# Construct: the soluble extracellular part of RAGE (sRAGE); purchased Abcam
# Sequence (Q15109 23-342 limits assumed): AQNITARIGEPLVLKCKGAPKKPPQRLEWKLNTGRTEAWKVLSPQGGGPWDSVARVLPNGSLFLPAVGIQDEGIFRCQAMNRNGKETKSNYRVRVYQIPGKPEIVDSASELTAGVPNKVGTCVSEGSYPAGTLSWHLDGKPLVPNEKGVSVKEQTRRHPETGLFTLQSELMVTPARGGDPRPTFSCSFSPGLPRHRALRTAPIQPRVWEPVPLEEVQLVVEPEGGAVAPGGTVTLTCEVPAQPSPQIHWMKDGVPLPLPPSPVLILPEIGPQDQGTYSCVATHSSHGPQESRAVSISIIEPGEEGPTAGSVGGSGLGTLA
# method.description: Microscale thermophoresis, interaction with sRAGE
# Format: binding
# applied.conditions: MST, Monolith NT.115; 50 nM RED-tris-NTA-labeled His-tag sRAGE; peptide 6.1 nM to 200 μM; 4% DMSO, 20% glycerol; mean ± SD, n = 4–5; read-out: dissociation constant (Kd) with sRAGE
Ends that are not written are not given here.
observable: Kd (µM)
Give bare numbers, in µM.

[ask] Record lookup: for sRAGE (Homo sapiens, UniProt Q15109), what Kd belongs to LVFFAEDVGSNKGAIIGLMVGGVVIA [Aβ17 − 42] ?
[reply] 10
